biological target: cdk2/A (Homo sapiens, UniProt P24941); experiment: cdk2/A kinase assay; conditions: 32P incorporation into retinoblastoma, 25° C., 15 minutes; read-out: Cdk2A IC50
pIC50: −log10 of the molar value.
Response key: condition met means pIC50 >= 7; condition not met means pIC50 < 7.

- MOLECULE: "COc1ccc2cnc(Nc3ccc(N4CCCCC4)cc3)nc2c1C(C)C"
  LABEL CLASS: "condition not met"
- MOLECULE: "COc1ccc2cnc(Nc3ccc(N4CCNCC4)cc3)nc2c1C(C)C"
  LABEL CLASS: "condition not met"
- MOLECULE: "COc1ccc2cnc(Nc3ccc(N4CCC(NC(=O)OC(C)(C)C)C4)cc3)nc2c1C1CCCC1 (stereo not drawn)"
  LABEL CLASS: "condition not met"
- MOLECULE: "COc1ccc2cnc(Nc3ccc(N4CCN(C(=O)CN)CC4)cc3)nc2c1C(C)C"
  LABEL CLASS: "condition not met"
- MOLECULE: "COc1ccc2cnc(Nc3ccc(N4CCNCC4)cc3)nc2c1C1CCCC1"
  LABEL CLASS: "condition met"
- MOLECULE: "COc1ccc2cnc(Nc3ccc(N4CCCC4)cc3)nc2c1C(C)C"
  LABEL CLASS: "condition not met"
- MOLECULE: "COc1ccc2cnc(Nc3ccc(N4CCC(N)C4)cc3)nc2c1C1CCCC1 (stereo not drawn)"
  LABEL CLASS: "condition not met"
- MOLECULE: "COc1ccc2cnc(Nc3ccc(N4CCN(C(C)=O)CC4)cc3)nc2c1C1CCCC1"
  LABEL CLASS: "condition met"

###

# reported melting point; entries follow

- COMPOUND: "COc1ccc2cnc(Nc3ccc(N4CCN(C(=O)C(N)CC(C)C)CC4)cc3)nc2c1C1CCCC1 (centres unmarked)"
  melting point: "130 to 132 °C"
- COMPOUND: "COc1ccc2cnc(Nc3ccc(N4CCCC4)cc3)nc2c1C1CCCC1"
  melting point: "240 to 242 °C"
- COMPOUND: "COc1ccc2cnc(Nc3ccccc3)nc2c1C(C)C"
  melting point: "172 to 173 °C"
- COMPOUND: "COc1ccc2cnc(Nc3ccc(N4CCN(C(C)=O)CC4)cc3)nc2c1C(C)C"
  melting point: "197 to 198 °C"
- COMPOUND: "COc1ccc2cnc(Nc3ccc(N4CCCCC4)c(F)c3)nc2c1C1CCCC1"
  melting point: "200 to 201 °C"

###

molecular target: cdk4/D (Homo sapiens, UniProt P11802); assay: Cyclin-Dependent Kinase 4 (cdk4) Assay; assay type: biochemical; settings: 25 μM ATP, retinoblastoma substrate, 25° C., 15 minutes; read-out: Cdk4 IC50
Sequence (P11802 whole entry, species assumed): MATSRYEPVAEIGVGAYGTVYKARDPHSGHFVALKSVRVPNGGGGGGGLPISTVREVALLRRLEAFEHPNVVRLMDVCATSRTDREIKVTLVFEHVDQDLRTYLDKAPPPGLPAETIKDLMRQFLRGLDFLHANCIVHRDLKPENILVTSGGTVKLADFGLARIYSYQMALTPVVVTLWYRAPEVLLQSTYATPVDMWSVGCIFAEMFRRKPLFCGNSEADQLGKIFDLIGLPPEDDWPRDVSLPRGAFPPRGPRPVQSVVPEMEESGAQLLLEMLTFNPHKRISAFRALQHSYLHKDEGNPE
Sequence (P24385 whole entry partner, species assumed): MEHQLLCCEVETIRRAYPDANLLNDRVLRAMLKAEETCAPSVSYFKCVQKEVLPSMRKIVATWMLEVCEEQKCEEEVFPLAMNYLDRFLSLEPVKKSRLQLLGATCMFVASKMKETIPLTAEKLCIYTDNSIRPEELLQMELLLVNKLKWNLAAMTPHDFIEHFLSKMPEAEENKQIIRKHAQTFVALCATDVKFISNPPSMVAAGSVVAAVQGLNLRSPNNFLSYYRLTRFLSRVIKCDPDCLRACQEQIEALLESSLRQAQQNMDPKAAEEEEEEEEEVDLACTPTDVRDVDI
pIC50: −log10 of the molar value.
# reported pIC50; entries follow

- MOLECULE: "COc1ccc2cnc(Nc3ccc(F)c(C)c3)nc2c1C1CCCC1"
  TESTED SYSTEM: "cdk4/D (Homo sapiens, UniProt P11802)"
  pIC50: 5.62
- MOLECULE: "COc1ccc2cnc(Nc3ccc(F)c(C)c3)nc2c1C(C)C"
  TESTED SYSTEM: "cdk4/D (Homo sapiens, UniProt P11802)"
  pIC50: 5.82
- MOLECULE: "COc1ccc2cnc(Nc3ccc(N4CCN(C(=O)OC(C)(C)C)CC4)cc3)nc2c1C1CCCC1"
  TESTED SYSTEM: "cdk4/D (Homo sapiens, UniProt P11802)"
  pIC50: 7.29
- MOLECULE: "COc1ccc2cnc(Nc3ccc(N4CCOCC4)c(F)c3)nc2c1C1CCCC1"
  TESTED SYSTEM: "cdk4/D (Homo sapiens, UniProt P11802)"
  pIC50: 7.15
- MOLECULE: "COc1ccc2cnc(Nc3ccc(N4CCC(NC(=O)OC(C)(C)C)C4)cc3)nc2c1C1CCCC1 (centres unmarked)"
  TESTED SYSTEM: "cdk4/D (Homo sapiens, UniProt P11802)"
  pIC50: 6.56
- MOLECULE: "COc1ccc2cnc(Nc3ccc(N4CCCCC4)c(F)c3)nc2c1C1CCCC1"
  TESTED SYSTEM: "cdk4/D (Homo sapiens, UniProt P11802)"
  pIC50: 7.07
- MOLECULE: "COc1ccc2cnc(Nc3ccc(N4CCNCC4)cc3)nc2c1C1CCCC1"
  TESTED SYSTEM: "cdk4/D (Homo sapiens, UniProt P11802)"
  pIC50: 9.00
- MOLECULE: "COc1ccc2cnc(Nc3ccc(N4CCN(C(=O)OC(C)(C)C)CC4)cc3)nc2c1C(C)C"
  TESTED SYSTEM: "cdk4/D (Homo sapiens, UniProt P11802)"
  pIC50: 7.20
